Cited source: patent US8466162B2

Exercise: state measured log10 EC50 for each of the molecules provided.
# Test system: H460 cells
# assayText: alamarBlue H460 cell assay (antiproliferative/cytotoxicity)
# Assay type: cell-based
# assayContext: NCI-H460; H460 human lung carcinoma cells
Base-10 log of EC50, unit nM.

Problem: Give log10 EC50 for the following molecule: CCS(=O)(=O)Nc1cc(C#Cc2c(C)nc(N)nc2-c2ccnc(C)c2)cnc1C
Result: 3.26

Problem: Give log10 EC50 for the following molecule: CCc1nc(N)nc(-c2ccc(C(=O)N3CCN(C)CC3)c(F)c2)c1C#Cc1cnc(C)c(NS(=O)(=O)c2ccc(F)cc2F)c1
Result: 2.70

Problem: Give log10 EC50 for the following molecule: COc1ncc(C#Cc2c(C)ncnc2-c2ccc(C(=O)N3CCN(C)CC3)c(F)c2)cc1NS(=O)(=O)c1ccc(F)cc1F
Result: 0.90

Problem: Give log10 EC50 for the following molecule: CCc1ncnc(-c2cccc(C(F)(F)F)c2F)c1C#Cc1cnc(C)c(NS(C)(=O)=O)c1
Result: 3.07

Problem: Give log10 EC50 for the following molecule: CCc1nc(N)nc(-c2ccc(C3CC3)nc2)c1C#Cc1cnc(C)c(NS(C)(=O)=O)c1
Result: 2.15

Problem: Give log10 EC50 for the following molecule: CCc1ncnc(-c2ccc(CN)cc2)c1C#Cc1cnc(C)c(NS(C)(=O)=O)c1
Result: 3.38

Problem: Give log10 EC50 for the following molecule: CCc1ncnc(-c2cccc(CN(C)C)c2)c1C#Cc1cnc(C)c(NS(=O)(=O)c2ccc(F)cc2F)c1
Result: 2.54

Problem: Give log10 EC50 for the following molecule: CCc1ncnc(-c2ccnc(C)c2)c1C#Cc1cnc(C)c(NS(=O)(=O)c2ccc(F)cc2F)c1
Result: 1.96

Problem: Give log10 EC50 for the following molecule: CCc1ncnc(-c2ccc(CNC(=O)OC(C)(C)C)nc2)c1C#Cc1cnc(C)c(NS(=O)(=O)c2ccc(F)cc2F)c1
Result: 1.80

Problem: Give log10 EC50 for the following molecule: CCc1ncnc(-c2ccnc(C)c2)c1C#Cc1cnc(C)c(NS(=O)(=O)c2cccnc2)c1
Result: 2.90

Problem: Give log10 EC50 for the following molecule: CCc1ncnc(-c2ccc(C(=O)N3CCN(C)CC3)c(F)c2)c1C#Cc1cnc(C)c(NS(C)(=O)=O)c1
Result: 3.37

Problem: Give log10 EC50 for the following molecule: CCc1ncnc(-c2ccc(CNC(=O)OC(C)(C)C)nc2)c1C#Cc1cnc(C)c(NS(=O)(=O)c2ccccc2C(F)(F)F)c1
Result: 2.08

Problem: Give log10 EC50 for the following molecule: CCc1ncnc(-c2cccc(CN(C)C)c2)c1C#Cc1cnc(C)c(NS(C)(=O)=O)c1
Result: 3.45

Problem: Give log10 EC50 for the following molecule: COc1ccc(-c2ncnc(C)c2C#Cc2cnc(OC)c(NS(=O)(=O)c3ccc(F)cc3F)c2)cc1OC
Result: 1.04

Problem: Give log10 EC50 for the following molecule: CCc1ncnc(-c2ccnc(C)c2)c1C#Cc1cnc(C)c(NS(=O)(=O)c2cn(C)cn2)c1
Result: 2.47

Problem: Give log10 EC50 for the following molecule: CCc1ncnc(-c2ccnc(C)c2)c1C#Cc1cnc(C)c(NS(=O)(=O)c2ccccc2)c1
Result: 1.76

Problem: Give log10 EC50 for the following molecule: CCc1nc(N)nc(-c2ccccc2)c1C#Cc1cnc(C)c(NS(C)(=O)=O)c1
Result: 2.24

Problem: Give log10 EC50 for the following molecule: CCc1ncnc(-c2ccnc(C)c2)c1C#Cc1cnc(C)c(NS(=O)(=O)c2cc(C)ccc2OC)c1
Result: 2.02

Problem: Give log10 EC50 for the following molecule: Cc1ccc(-c2ncnc(C)c2C#Cc2cnc(C)c(NS(C)(=O)=O)c2)cn1
Result: 3.29

Problem: Give log10 EC50 for the following molecule: CCc1nc(N)nc(-c2cccc(C#N)c2)c1C#Cc1cnc(C)c(NS(=O)(=O)c2ccc(F)cc2F)c1
Result: 2.17

Problem: Give log10 EC50 for the following molecule: CCc1ncnc(-c2ccccc2F)c1C#Cc1cnc(C)c(NS(C)(=O)=O)c1
Result: 3.50

Problem: Give log10 EC50 for the following molecule: Cc1cc(-c2ncnc(C)c2C#Cc2cncc(NS(C)(=O)=O)c2)ccn1
Result: 3.31

Problem: Give log10 EC50 for the following molecule: Cc1cc(-c2ncnc(C)c2C#Cc2cnc(C)c(NS(C)(=O)=O)c2)ccn1
Result: 3.41

Problem: Give log10 EC50 for the following molecule: CCc1ncnc(-c2ccc(CN)nc2)c1C#Cc1cnc(C)c(NS(=O)(=O)c2ccc(F)cc2F)c1
Result: 2.98

Problem: Give log10 EC50 for the following molecule: Cc1cc(C)cc(-c2ncnc(C)c2C#Cc2cnc(C)c(NS(C)(=O)=O)c2)c1
Result: 2.53

Problem: Give log10 EC50 for the following molecule: CCc1ncnc(-c2ccnc(C)c2)c1C#Cc1cnc(C)c(NS(=O)(=O)c2c(F)cccc2F)c1
Result: 2.27

Problem: Give log10 EC50 for the following molecule: CNC(=O)c1ccc(-c2nc(N)nc(C)c2C#Cc2cnc(C)c(NS(C)(=O)=O)c2)cc1Cl
Result: 2.58

Problem: Give log10 EC50 for the following molecule: CCc1ncnc(-c2ccc(C(=O)N3CCN(C)CC3)c(F)c2)c1C#Cc1cnc(C)c(NS(=O)(=O)c2ccc(F)cc2F)c1
Result: 2.28

Problem: Give log10 EC50 for the following molecule: CCc1ncnc(-c2ccnc(C)c2)c1C#Cc1cnc(C)c(NS(=O)(=O)c2ccccc2Cl)c1
Result: 2.01

Problem: Give log10 EC50 for the following molecule: CNC(=O)c1ccc(-c2nc(N)nc(C)c2C#Cc2cnc(Cl)c(NS(C)(=O)=O)c2)cc1Cl
Result: 2.18

Problem: Give log10 EC50 for the following molecule: CCc1ncnc(-c2ccc(OC)cc2F)c1C#Cc1cnc(C)c(NS(C)(=O)=O)c1
Result: 2.83
